Hey, just so you know, these numbers are from paper PMC8158513.

- assay-details: in vivo
- condition-details: New Zealand White, rabbit, in vivo, topical or ocular
measured-attribute: half-life (h)
Number only, in h; omit the unit.

Entry CCCCC1=NC2(CCCC2)C(=O)N1Cc1ccc(-c2ccccc2-c2nnn[nH]2)cc1 , half-life reported as 17.6

* * *

- assay-details: in vivo
- condition-details: New Zealand White, rabbit, in vivo, Plasma concentration at 6 h, mean of the other concentrations (outlier excluded)
measured-attribute: concentration at 6 h (ng/mL)
Give just the number in ng/mL; leave the unit off.

concentration at 6 h for CCCCC1=NC2(CCCC2)C(=O)N1Cc1ccc(-c2ccccc2-c2nnn[nH]2)cc1 is 1.16
